// data source = ChEMBL document CHEMBL1148703

assay_protocol: Cytotoxicity against HEL cells after 3 days
Assay type: cell-based
assay_setup: human
property_name: CC50 at 72 h

Check out these entries, answers already filled in.
>  <chemical_structure>
O=c1nc2oc(C#Cc3ccccc3)cc2cn1[C@H]1C[C@H](O)[C@@H](CO)O1

>  <property_name>
CC50 at 72 h

>  <result>
> 570 µM

$$$$
>  <chemical_structure>
CCCCCCc1cnc(-c2cc3cn([C@H]4C[C@H](O)[C@@H](CO)O4)c(=O)nc3o2)nc1

>  <property_name>
CC50 at 72 h

>  <result>
> 50 µM

$$$$
>  <chemical_structure>
Cc1ccc(CCc2cc3cn([C@H]4C[C@H](O)[C@@H](CO)O4)c(=O)nc3o2)cc1

>  <property_name>
CC50 at 72 h

>  <result>
> 540 µM

$$$$
>  <chemical_structure>
CCCCc1ccc(-c2cc3cn([C@H]4C[C@H](O)[C@@H](CO)O4)c(=O)nc3o2)nc1

>  <property_name>
CC50 at 72 h

>  <result>
> 50 µM

$$$$
>  <chemical_structure>
CCCCCCc1ccc(-c2cc3cn([C@H]4C[C@H](O)[C@@H](CO)O4)c(=O)nc3o2)cn1

>  <property_name>
CC50 at 72 h

>  <result>
> 50 µM

$$$$
>  <chemical_structure>
CCCc1ccc(CCc2cc3cn([C@H]4C[C@H](O)[C@@H](CO)O4)c(=O)nc3o2)cc1

>  <property_name>
CC50 at 72 h

>  <result>
> 130 µM

$$$$
>  <chemical_structure>
CCCc1ccc(C#Cc2cc3cn([C@H]4C[C@H](O)[C@@H](CO)O4)c(=O)nc3o2)cc1

>  <property_name>
CC50 at 72 h

>  <result>
> 120 µM

$$$$
>  <chemical_structure>
CCCCCc1ccc(C#Cc2cc3cn([C@H]4C[C@H](O)[C@@H](CO)O4)c(=O)nc3o2)cc1

>  <property_name>
CC50 at 72 h

>  <result>
110 µM

$$$$

Kindly consider the entry below.
Lookup: Requested read-out: CC50 at 72 h. Entry: CCCCCc1cnc(-c2cc3cn([C@H]4C[C@H](O)[C@@H](CO)O4)c(=O)nc3o2)nc1
Found: > 50 µM

* * *

Listed molecules paired with reported MCC at 72 h
assay_protocol: Cytotoxicity against HEL cells assessed as alteration in cell morphology after 3 days
Assay type: cell-based
assay_setup: human

A selection of reference data follows.
>  <molecule>
CCCCCc1ccc(-c2cc3cn([C@H]4C[C@H](O)[C@@H](CO)O4)c(=O)nc3o2)cc1 [CF1743]

>  <MCC at 72 h>
> 1.3 µM

$$$$
>  <molecule>
Cc1ccc(C#Cc2cc3cn([C@H]4C[C@H](O)[C@@H](CO)O4)c(=O)nc3o2)cc1

>  <MCC at 72 h>
≥ 510 µM

$$$$

Lookup: Name the reported MCC at 72 h value associated with the molecule CCCCc1ccc(-c2cc3cn([C@H]4C[C@H](O)[C@@H](CO)O4)c(=O)nc3o2)nc1
Found: > 100 µM

Lookup: Look up MCC at 72 h: Cc1ccc(CCc2cc3cn([C@H]4C[C@H](O)[C@@H](CO)O4)c(=O)nc3o2)cc1
Found: 540 µM

Lookup: Please give the measured MCC at 72 h for this molecule: O=c1nc2oc(C#Cc3ccccc3)cc2cn1[C@H]1C[C@H](O)[C@@H](CO)O1
Found: > 570 µM

Lookup: Need MCC at 72 h of O=c1nc2oc(CCc3ccccc3)cc2cn1[C@H]1C[C@H](O)[C@@H](CO)O1 , thanks.
Found: > 560 µM

Lookup: For the molecule shown here, CCCCCc1cnc(-c2cc3cn([C@H]4C[C@H](O)[C@@H](CO)O4)c(=O)nc3o2)nc1 , give the reported MCC at 72 h.
Found: > 100 µM

Lookup: Consider the molecule Nc1nc2c(ncn2COCCO)c(=O)[nH]1 [ACYCLOVIR] and give its measured MCC at 72 h.
Found: > 220 µM

Lookup: Give its MCC at 72 h value. Item: CCCCCCc1cnc(-c2cc3cn([C@H]4C[C@H](O)[C@@H](CO)O4)c(=O)nc3o2)nc1
Found: > 100 µM

* * *

assay_protocol: Cytotoxicity against HEL cells after 3 days
Format: cell-based
assay_setup: human
Attribute: CC50 at 72 h

Lookup: CC50 at 72 h lookup needed for O=c1nc2oc(CCc3ccccc3)cc2cn1[C@H]1C[C@H](O)[C@@H](CO)O1 , thanks.
Found: > 560 µM

Lookup: Form field: reported CC50 at 72 h of Nc1nc2c(ncn2COC(CO)CO)c(=O)[nH]1 [GANCICLOVIR]
Found: > 200 µM

Lookup: I am curious: what CC50 at 72 h value has been reported for CCCCCCCC/C=C/c1cc2cn([C@H]3C[C@H](O)[C@@H](CO)O3)c(=O)nc2o1 ?
Found: 230 µM

Lookup: Can you share its CC50 at 72 h? I mean this molecule: CCCCCCc1ccc(-c2cc3cn([C@H]4C[C@H](O)[C@@H](CO)O4)c(=O)nc3o2)nc1
Found: > 50 µM

Lookup: Return reported CC50 at 72 h; argument: O=c1[nH]c(=O)n([C@H]2C[C@H](O)[C@@H](CO)O2)cc1/C=C/Br [BRIVUDINE]
Found: > 150 µM

Lookup: I am curious: what CC50 at 72 h value has been reported for CCCCCc1ccc(CCc2cc3cn([C@H]4C[C@H](O)[C@@H](CO)O4)c(=O)nc3o2)cc1 ?
Found: > 470 µM

Lookup: # CC50 at 72 h lookup, item CCCCCCCCCCc1cc2cn([C@H]3C[C@H](O)[C@@H](CO)O3)c(=O)nc2o1
Found: > 510 µM

Lookup: Could you tell me which CC50 at 72 h is on file for CCCCCc1ccc(-c2cc3cn([C@H]4C[C@H](O)[C@@H](CO)O4)c(=O)nc3o2)nc1 ?
Found: > 50 µM

Lookup: Item CCCC#Cc1ccc(-c2cc3cn([C@H]4C[C@H](O)[C@@H](CO)O4)c(=O)nc3o2)cn1 has what recorded CC50 at 72 h?
Found: > 50 µM

* * *

assay_protocol: Cytotoxicity against HEL cells assessed as alteration in cell morphology after 3 days
Assay type: cell-based
assay_setup: human
property_name: MCC at 72 h

Recorded MCC at 72 h, per entry:
>  <chemical_structure>
Nc1nc2c(ncn2COC(CO)CO)c(=O)[nH]1

>  <MCC at 72 h>
> 200 µM

$$$$
>  <chemical_structure>
CCCc1ccc(CCc2cc3cn([C@H]4C[C@H](O)[C@@H](CO)O4)c(=O)nc3o2)cc1

>  <MCC at 72 h>
≥ 130 µM

$$$$
>  <chemical_structure>
CCCCCCCC/C=C/c1cc2cn([C@H]3C[C@H](O)[C@@H](CO)O3)c(=O)nc2o1

>  <MCC at 72 h>
≥ 120 µM

$$$$
>  <chemical_structure>
CCCCCc1ccc(CCc2cc3cn([C@H]4C[C@H](O)[C@@H](CO)O4)c(=O)nc3o2)cc1

>  <MCC at 72 h>
≥ 470 µM

$$$$

Query compound follows.
Lookup: Please report the recorded MCC at 72 h for CCCc1ccc(C#Cc2cc3cn([C@H]4C[C@H](O)[C@@H](CO)O4)c(=O)nc3o2)cc1 .
Found: 87 µM

* * *

# reported EC50; entries follow
Test system: Human alphaherpesvirus 3
assay_protocol: Antiviral activity against TK+ VZV YS in HEL cells assessed as reduction of virus plaque formation after 5 days
Assay type: functional, organism-based
assay_setup: Human alphaherpesvirus 3, YS, 120 h
Express it in µM; write the number only.

Before answering, review these 5 worked examples.
>  <compound>
CCCCCc1ccc(C#Cc2cc3cn([C@H]4C[C@H](O)[C@@H](CO)O4)c(=O)nc3o2)cc1

>  <EC50 [µM]>
19

$$$$
>  <compound>
O=c1nc2oc(C#Cc3ccccc3)cc2cn1[C@H]1C[C@H](O)[C@@H](CO)O1

>  <EC50 [µM]>
99

$$$$
>  <compound>
CCCCc1ccc(-c2cc3cn([C@H]4C[C@H](O)[C@@H](CO)O4)c(=O)nc3o2)nc1

>  <EC50 [µM]>
0.36

$$$$
>  <compound>
CCCC#Cc1ccc(-c2cc3cn([C@H]4C[C@H](O)[C@@H](CO)O4)c(=O)nc3o2)cn1

>  <EC50 [µM]>
0.06

$$$$
>  <compound>
CCCc1ccc(C#Cc2cc3cn([C@H]4C[C@H](O)[C@@H](CO)O4)c(=O)nc3o2)cc1

>  <EC50 [µM]>
27

$$$$

Lookup: For Human alphaherpesvirus 3, provide EC50 of Nc1nc2c(ncn2COC(CO)CO)c(=O)[nH]1 [GANCICLOVIR] please.
Found: 2.3
